Target: Endonuclease 8-like 2 (Homo sapiens);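 note: fluorescence at 594 nm reports NEIL2 cutting and release of a quenched double-stranded DNA oligo substrate, reduced signal read as inhibition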
Conditions: Compound Concentration 10.0 uM, Hit No
The following molecules are shown together with reported inhibition values.

| COMPOUND_STRING | SYSTEM_UNDER_TEST | UNIT_LABEL | inhibition |
| --- | --- | --- | --- |
| O=C1CC[C@@]2(O)[C@H]3Cc4ccc(O)c5c4[C@@]2(CCN3CC2CC2)[C@H]1O5 | Endonuclease 8-like 2 (Homo sapiens) | % | -8.5 |
| COc1nc2ccc([C@@](O)(c3ccccc3)C3CCN(C(C)=O)CC3)cc2c(Cl)c1Cc1ccc(-n2cccn2)cc1 | Endonuclease 8-like 2 (Homo sapiens) | % | -7.63 |
| Cc1nc(-c2ccc(C(F)(F)F)cc2)sc1C(=O)NCc1ccc(OC(C)(C)C(=O)O)cc1 | Endonuclease 8-like 2 (Homo sapiens) | % | -7.38 |
| CN1CC[C@@]23CCCC[C@@H]2[C@@H]1Cc1ccc(O)cc13 | Endonuclease 8-like 2 (Homo sapiens) | % | -9.52 |
| NCCc1c[nH]c2ccc(C(N)=O)cc12 | Endonuclease 8-like 2 (Homo sapiens) | % | -5.97 |

---

The following compounds are shown together with reported inhibition values.
Biological target: Endonuclease III-like protein 1 (Homo sapiens) (UniProt P78549);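 note: enzyme assay tracking NTHL1 cutting and release of a quenched double-stranded DNA oligo substrate, read as fluorescence at 594 nm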
Sequence (whole entry): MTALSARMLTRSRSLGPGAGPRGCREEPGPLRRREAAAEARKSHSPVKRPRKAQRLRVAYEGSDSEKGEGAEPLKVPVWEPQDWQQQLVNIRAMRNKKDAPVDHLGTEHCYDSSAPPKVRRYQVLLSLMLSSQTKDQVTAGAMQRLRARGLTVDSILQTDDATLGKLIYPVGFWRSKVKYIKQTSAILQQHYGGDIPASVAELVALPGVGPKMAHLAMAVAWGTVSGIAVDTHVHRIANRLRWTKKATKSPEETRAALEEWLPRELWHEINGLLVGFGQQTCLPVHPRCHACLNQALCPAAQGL
Settings: Compound Concentration 10.0 uM, Hit No
ASSAY_METRIC: inhibition (%)

| COMPOUND_STRING | ASSAY_METRIC | RESULT |
| --- | --- | --- |
| CC(C)(C)c1ccc(C(=O)Nc2cn3cc(-n4ccnc4)ccc3n2)cc1 | inhibition | -0.61 |
| COc1cc(Nc2nccc(-c3cnn4nc(OC)ccc34)n2)cc(C(F)(F)F)c1 | inhibition | 0.785 |
| c1ccc2oc(-c3csc(C4CCN(Cc5nc6ncccc6[nH]5)CC4)n3)cc2c1 | inhibition | -1.29 |
| CC1(C)CC(=O)c2c(SCCO)sc(-c3nccs3)c2C1 | inhibition | 28.6 |
| C[C@H]1[C@H]2CC[C@H]3[C@@H]4CC=C5C[C@@H](N(C)C)CC[C@]5(C)[C@H]4CC[C@]23CN1C | inhibition | 7.05 |

---

The following molecules are shown together with reported inhibition values.
Target: UniProtKB P13051
Sequence (P13051 whole entry): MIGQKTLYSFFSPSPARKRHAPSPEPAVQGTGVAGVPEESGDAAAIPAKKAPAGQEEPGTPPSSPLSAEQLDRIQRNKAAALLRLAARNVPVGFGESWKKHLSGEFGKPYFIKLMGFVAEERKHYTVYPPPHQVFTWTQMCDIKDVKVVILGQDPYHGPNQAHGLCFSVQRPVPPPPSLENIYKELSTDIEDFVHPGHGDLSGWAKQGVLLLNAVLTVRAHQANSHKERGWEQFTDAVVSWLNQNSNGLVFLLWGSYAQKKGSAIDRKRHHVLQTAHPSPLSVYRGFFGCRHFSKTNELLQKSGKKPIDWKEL
Details: Compound Concentration 10.0 uM, Hit No
ASSAY_METRIC: inhibition (%)

| MOLECULE | SYSTEM_UNDER_TEST | RESULT |
| --- | --- | --- |
| Cn1ncnc1COc1nn2c(-c3c(F)cccc3F)nnc2cc1C1CCC1 | UniProtKB P13051 | -7.24 |
| Cn1c(=O)n(CCCO)c(=O)c2c1nc(Oc1cccc(Cl)c1)n2Cc1ccc(Cl)cc1 | UniProtKB P13051 | 0.363 |
| Nc1ncnc2c1ncn2[C@@H]1O[C@H](COP(=O)(O)OP(=O)(O)O)[C@@H](O)[C@H]1O | UniProtKB P13051 | -1.19 |
| COc1cccc(OC)c1-c1cc(C(=O)NC2(C(=O)O)C3CC4CC(C3)CC2C4)nn1-c1ccnc2cc(Cl)ccc12 (stereo not given) | UniProtKB P13051 | -7.21 |
| CN(C)CCCc1cc(C(=O)Nc2ccc(-c3ccncc3)cc2)ccc1O | UniProtKB P13051 | -0.815 |
| Cc1cc(C)cc(-c2cnc3cc(Cl)c(-c4cccc(O)c4)cc3c2OCCCN)c1 | UniProtKB P13051 | -7.52 |
| CC(=O)c1ccc2c(c1)[C@@H]1C=CC[C@@H]1[C@H](c1cc3c(cc1Br)OCO3)N2 | UniProtKB P13051 | -3.58 |
| O=C(Nc1ccc(Cl)cc1)Nc1cccc(-c2cccc(N3CCCC3)n2)c1 | UniProtKB P13051 | -9.34 |
| COC(=O)c1cc2c(cn1)[nH]c1ccccc12 | UniProtKB P13051 | -4.88 |
| O=C(O)Cc1cc(I)c(Oc2ccc(O)c(I)c2)c(I)c1 | UniProtKB P13051 | 3.85 |

---

Molecular target: Uracil-DNA glycosylase (Homo sapiens);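 note: UNG excision on a quenched double-stranded DNA oligo probe, with APE1 added for strand incision and turnover, read as fluorescence at 594 nm as strands separate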
Details: Compound Concentration 10.0 uM, Hit No

| COMPOUND_STRING | inhibition, % |
| --- | --- |
| Cc1cc(OCC(=O)O)cc(C)c1Cc1ccc(O)c(C(C)C)c1 | 2.02 |
| Cn1cncc1[C@@](O)(COc1ccc(C#N)cc1-c1ccc(OC(F)(F)F)cc1)c1ccc(C#N)cc1 | -3.07 |
| COc1ccc(CC[C@@H](OC(=O)[C@@H]2CCCCN2C(=O)[C@H](c2cc(OC)c(OC)c(OC)c2)C2CCCCC2)c2cccc(OCCN3CCOCC3)c2)cc1OC | 0.833 |
| CCCCCCCN(CCc1ccc(SC(C)(C)C(=O)O)cc1)C(=O)Nc1ccc(F)cc1F | 3.11 |

---

The following molecules are shown together with reported inhibition values.
Biological target: Endonuclease 8-like 1 (Homo sapiens);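 note: fluorescence at 594 nm from quenched duplex DNA oligonucleotides released by NEIL1 cleavage and strand separation, reported as reduction of this enzyme activity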
Details: Compound Concentration 10.0 uM, Hit No
ASSAY_METRIC: inhibition (%)

| MOLECULE | RESULT |
| --- | --- |
| Cc1cnc(CNCC2(F)CCN(C(=O)c3ccc(F)c(Cl)c3)CC2)nc1 | 2.32 |
| CC(C)Cc1ccc([C@@H](C)C(=O)NS(C)(=O)=O)cc1 | 1.28 |
| CC(C)C[C@H](NC(=O)[C@H](CC(N)=O)NC(=O)[C@@H]1CCCN1C(=O)[C@@H](N)C(C)C)C(=O)N1CCC[C@H]1C(=O)N[C@@H](CCC(N)=O)C(=O)N[C@@H](CCCNC(=N)N)C(=O)N[C@@H](Cc1ccccc1)C(N)=O | 5.49 |
| CC[C@H](CC(=O)O)n1c(=O)c2ncccc2n(Cc2cn(C)c3cc(C)cc(C)c23)c1=O | 0.164 |
| COc1cccc([C@@H](C)NCCCc2ccccc2Cl)c1 | -0.352 |
| CCCCc1nc(Cl)c(CO)n1Cc1ccc(-c2ccccc2-c2nnn[nH]2)cc1 | -2.87 |
| CN1CCN(c2cc(-c3ccccc3)nc(N)n2)CC1 | -2.28 |
| CSc1ccccc1N1CCN(CCCCCC(=O)NC2CCCc3ccccc32)CC1 (centres undefined) | 7.57 |
| CCCCN(CC)c1nc(C)nc2c1c(C)cn2-c1c(C)cc(C)cc1C | -1.24 |
| CCCCC#Cc1nc(NC)c2ncn([C@@H]3O[C@H](CO)[C@@H](O)[C@H]3O)c2n1 | -4.5 |
| N[C@](CC1c2ccccc2Oc2ccccc21)(C(=O)O)[C@H]1C[C@@H]1C(=O)O | 0.898 |
| CC(C)NC(=O)N1CC[C@H](NC2=Nc3cc(F)ccc3N(CC(F)F)c3ccc(Cl)cc32)C1 | -1.58 |
| CN(C)CC#Cc1ccc(OCCCc2sc(N3CCc4cccc(C(=O)Nc5nc6ccccc6s5)c4C3)nc2C(=O)O)c(F)c1 | -0.896 |
| O=C(O)CCC/C=C\C[C@H]1C(=O)C[C@@H](O)[C@@H]1/C=C/[C@@H](O)CCc1ccccc1 | -9.47 |
| COc1ccccc1-n1nc(C2CC(C)(C)OC(C)(C)C2)cc1-c1ccc(Cl)cc1 | 11.3 |
| COC(=O)[C@H]1[C@H]2C[C@H]3c4[nH]c5ccccc5c4CCN3C[C@H]2CC[C@@H]1O | 2.02 |
| CCOc1ccc(S(=O)(=O)Nc2ccc(Cl)cc2C#Cc2cnc(C(=O)O)cc2OC)c2ncccc12 | 7.43 |
| O=C(O)CCCCCC[C@H]1C(=O)NC(=O)N1CCC(O)C1CCCCC1 (some centres undefined) | -4.58 |
| CNC[C@H](O)c1ccc(O)c(O)c1 | 9.88 |

---

Molecular target: N-glycosylase/DNA lyase (Homo sapiens) (UniProt O15527)
Sequence (O15527 whole entry): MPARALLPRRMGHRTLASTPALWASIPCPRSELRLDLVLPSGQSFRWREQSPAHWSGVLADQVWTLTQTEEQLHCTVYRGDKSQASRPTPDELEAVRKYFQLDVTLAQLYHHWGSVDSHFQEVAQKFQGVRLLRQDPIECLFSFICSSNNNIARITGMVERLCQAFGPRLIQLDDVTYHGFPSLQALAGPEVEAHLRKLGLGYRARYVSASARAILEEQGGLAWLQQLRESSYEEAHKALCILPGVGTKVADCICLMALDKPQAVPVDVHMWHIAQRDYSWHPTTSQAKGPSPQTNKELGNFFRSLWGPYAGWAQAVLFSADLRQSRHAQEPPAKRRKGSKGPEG
Conditions: Compound Concentration 10.0 uM, Hit No

| MOLECULE | UNIT_LABEL | inhibition |
| --- | --- | --- |
| O=C(c1cc2c(cc1F)OC(c1ccc(F)cc1)(c1ccc(Cl)cc1Cl)O2)N1CCOCC1 (centres undefined) | % | -5.3 |
| CC(C=CC1=C(C)CCCC1(C)C)=CC=CC(C)=CC(=O)O | % | 83.6 |
| CN(C)c1ncc2cc(-c3ccc(-c4ncccc4F)cc3Cl)c(=O)n(C[C@H]3OC[C@H](N)CO3)c2n1 | % | -0.214 |
| CC(C)N(CCCCOCC(=O)NS(C)(=O)=O)c1cnc(-c2ccccc2)c(-c2ccccc2)n1 | % | 17.1 |
| Cc1noc(-c2ccc(-c3ccc(CC(=O)O)cc3)cc2)c1NC(=O)O[C@H](C)c1ccccc1Cl | % | 10.8 |
| COC(=O)C1=C(C)NC(C)=C(C(=O)OCCCN2CCC(c3ccccc3)(c3ccccc3)CC2)[C@H]1c1cccc([N+](=O)[O-])c1 | % | -5.2 |
| CC(=O)NCCc1c(Cc2ccccc2)[nH]c2ccccc12 | % | -9.93 |
| Cc1cnc(CNCC2(F)CCN(C(=O)c3ccc(F)c(Cl)c3)CC2)nc1 | % | -1.55 |
| N[C@@H](CCP(=O)(O)O)C(=O)O | % | -5.28 |
| CC1CCN(CC[C@H]2CCCN2S(=O)(=O)c2cccc(O)c2)CC1 | % | -3.4 |
| Cc1c(C(=O)Nc2ccc(N3C[C@@H](C)O[C@@H](C)C3)nc2)cccc1-c1ccc(OC(F)(F)F)cc1 | % | -6.4 |
| COCC(=O)NC/C=C/c1ccc2ncnc(Nc3ccc(Oc4ccc(C)nc4)c(C)c3)c2c1 | % | 5.64 |
| Cn1c(-c2csc(C3CCN(CC4=NC5N=CC=CC5N4)CC3)n2)nc2ccccc21 (centres undefined) | % | -1.15 |
| NC(CCP(=O)(O)O)C(=O)O (racemic) | % | -1.26 |
| CN1CCN(c2cnc3c(C4CCN(C(=O)c5ccc(OC(F)(F)F)cc5N)CC4)ncnc3c2)CC1 | % | -1.54 |
| NC(=O)c1cc(-c2ccc(S(=O)(=O)[C@H]3CC[C@H](Nc4ccc(C(F)(F)F)cn4)CC3)cc2)ccn1 | % | -3 |
| CC[C@@H]1CN(C(=O)NCC(F)(F)F)C[C@@H]1c1cnc2cnc3[nH]ccc3n12 | % | 0.361 |
| O=C(NNS(=O)(=O)c1ccccc1)c1cc(-c2ccnnc2)ccc1F | % | 8.54 |
| CN(C)[C@H]1CCN(c2cc(-c3ccccc3)nc3ccnn23)C1 | % | 10.6 |
